- System: Duck hepatitis B virus
- MEASUREMENT_PROTOCOL: Antiviral activity against DHBV infected in duck hepatocytes assessed as inhibition of viral DNA replication after 15 days
- RECORDED_CONDITIONS: Hepatocyte, 360 h
PROPERTY_NAME: EC50 (µg/mL)

MOLECULE: O=c1[nH]c(=O)n([C@H]2C[C@H](F)[C@@H](CO)O2)cc1I
PROPERTY_NAME: EC50
VAL: 5

MOLECULE: O=c1[nH]c(=O)n([C@H]2C[C@@H](Cl)[C@@H](CO)O2)cc1F
PROPERTY_NAME: EC50
VAL: 10

MOLECULE: O=c1[nH]c(=O)n([C@H]2C[C@H](F)[C@@H](CO)O2)cc1CO
PROPERTY_NAME: EC50
VAL: 1

MOLECULE: Cc1cn([C@H]2C[C@H](Cl)[C@@H](CO)O2)c(=O)[nH]c1=O
PROPERTY_NAME: EC50
VAL: 10

MOLECULE: Nc1ccn([C@@H]2CS[C@H](CO)O2)c(=O)n1
PROPERTY_NAME: EC50
VAL: 0.05

###

The reader will find reported CC50 at 48 h values listed item by item below.
- MEASUREMENT_PROTOCOL: Cytotoxicity against human HuH7 cells after 2 days by XTT assay
- Format: cell-based, Huh-7

MOLECULE: O=c1[nH]c(=O)n([C@H]2C[C@H](F)[C@@H](CO)O2)cc1F
CC50 at 48 h: > 100 µg/mL
--
MOLECULE: O=c1[nH]c(=S)c(F)cn1[C@H]1C[C@H](F)[C@@H](CO)O1
CC50 at 48 h: > 100 µg/mL
--
MOLECULE: O=c1[nH]c(=O)n([C@H]2C[C@H](F)[C@@H](CO)O2)cc1C(F)(F)F
CC50 at 48 h: > 100 µg/mL
--
MOLECULE: Cc1cn([C@H]2C[C@H](Cl)[C@@H](CO)O2)c(=O)[nH]c1=O
CC50 at 48 h: > 200 µg/mL
--
MOLECULE: O=c1[nH]c(=S)ccn1[C@H]1C[C@H](F)[C@@H](CO)O1
CC50 at 48 h: > 100 µg/mL
--
MOLECULE: O=c1[nH]c(=O)n([C@H]2C[C@H](F)[C@@H](CO)O2)cc1CO
CC50 at 48 h: > 200 µg/mL
--
MOLECULE: O=c1[nH]c(=O)n([C@H]2C[C@H](F)[C@@H](CO)O2)cc1O
CC50 at 48 h: > 100 µg/mL
--
MOLECULE: O=c1[nH]c(=O)n([C@H]2C[C@H](F)[C@@H](CO)O2)cc1I
CC50 at 48 h: < 100 µg/mL
--
MOLECULE: O=c1ccn([C@@H]2O[C@H](CO)[C@@H](F)[C@H]2F)c(=O)[nH]1
CC50 at 48 h: > 200 µg/mL
--
MOLECULE: CCc1cn([C@H]2C[C@H](F)[C@@H](CO)O2)c(=O)[nH]c1=O
CC50 at 48 h: > 200 µg/mL
--
MOLECULE: Cc1cn([C@@H]2O[C@H](CO)[C@@H](F)[C@H]2F)c(=O)[nH]c1=O
CC50 at 48 h: > 100 µg/mL
--
MOLECULE: O=c1[nH]c(=O)n([C@H]2C[C@@H](Cl)[C@@H](CO)O2)cc1F
CC50 at 48 h: > 200 µg/mL
--
MOLECULE: O=c1[nH]c(=O)n([C@H]2C[C@H](Cl)[C@@H](CO)O2)cc1F
CC50 at 48 h: > 200 µg/mL
